procedure_details: in vitro
recorded_conditions: human
property_measured: CC50 (µM)
Please respond with the number in µM and leave the unit unwritten.

Req: What value of measured CC50 is listed for CC(C)C(=O)O[C@H]1[C@@H](O)[C@H](c2ccc3c(N)ncnn23)O[C@]1(C#N)CO[P@@](=O)(N[C@@H](C)C(=O)OC1CCCCC1)Oc1ccccc1 (single isomer, unassigned) [Example 206] ?
Resp: 16.6

Req: Reported CC50, compound CC(C)OC(=O)[C@H](C)N[P@](=O)(OC[C@@]1(C#N)O[C@@H](c2ccc3c(N)ncnn23)[C@H](OC(=O)C(C)(C)C)[C@@H]1O)Oc1ccccc1 (single isomer, unassigned) [Example 238] : ____
Resp: 45
